Tested on: Enterococcus avium
Assay: Antibacterial activity against Enterococcus avium MB119 after 24 hrs by microdilution assay
Type: functional
Settings: MB119, 24 h
Provide the recorded MIC for the entries that follow.
One number for each entry, in µM.

CC1=CC(=O)O[C@@H]1C/C=C(\C)CC[C@@H]1[C@@]2(C)CCC[C@@]3(C)C(=O)O[C@@H](C[C@@]1(C)O)[C@H]23; 154

Query molecule follows.
Query :: What is its MIC for Enterococcus avium? Entry: COC(=O)[C@]1(C)CCC[C@@]2(C)[C@H]1[C@@H](O)C[C@@](C)(O)[C@@H]2CC/C(C)=C/C[C@H]1OC(=O)C=C1C
Result :: 143
